This section presents compounds with their documented IC90 values.
# System: Streptococcus pneumoniae (ATCC6305)
# test_method_notes: Microtitre plate assay, IC90 determination
# Assay type: cell-based
# test_parameters: 90% inhibitory concentration for bacterial growth, 37° C., resazurin fluorescence, read-out: IC90 (μg/ml) SPN 6305
attribute_measured: IC90

| compound | reading |
| --- | --- |
| COc1nc2c(C(O)(CCN(C)C)c3cc(F)cc(F)c3)cc(-c3cccnc3)cc2cc1-c1ccccc1 (stereo not drawn) [Compound 64] | 10.5 µg/mL |
| CN(C)CCC(O)(c1ccc2nc(-c3cccnc3)cc(-c3ccccc3)c2c1)c1ccco1 (stereo not drawn) [Compound 44] | 11.3 µg/mL |
| COc1nc2ccc(C(O)(CCN(C)C)c3cc(F)cc(F)c3)cc2cc1Cc1ccc(C)cc1 (stereo not drawn) [Compound 7] | 12 µg/mL |
| CN(C)CCC(O)(c1cccs1)c1cc(Br)cc2cc(Cc3ccccc3)c(N3CCN(C)CC3)nc12 (stereo not drawn) [Compound 20] | 14.6 µg/mL |
| COc1nc2c(C(O)(CCN(C)C)c3ccco3)cc(Br)cc2cc1-c1ccccc1 (stereo not drawn) [Compound 13] | 10.8 µg/mL |
| COc1nc2c(C(O)(CCN(C)C)c3cc(F)cc(F)c3)cc(Br)cc2cc1Cc1ccccc1 (stereo not drawn) [Compound 12] | 12.1 µg/mL |
| CN(C)CCC(O)(c1cccs1)c1cc(Br)cc2cc(Cc3ccccc3)c(N(C)C)nc12 (stereo not drawn) [Compound 46] | 10.5 µg/mL |
| COc1nc2c(C(O)(CCN(C)C)c3cc(F)cc(F)c3)cc(Br)cc2cc1-c1ccccc1 (stereo not drawn) [Compound 9] | 13.3 µg/mL |
| COc1nc2ccccc2c(CC(O)(CCN(C)C)c2cccc3ccccc23)c1Cc1ccccc1 (stereo not drawn) [Compound 70] | 12.3 µg/mL |
